biological target: protein-protein interaction between Kras and SOS1 (biotin-tagged human Kras loaded with GDP, His-tagged human SOS1) (Homo sapiens (Human), UniProt P01116, G12D); assay: Protein-protein interaction inhibition between Kras and SOS1 (KrasG12D-SOS PPI) using AlphaScreen; format: biochemical; details: AlphaScreen; biotin-tagged human Kras loaded with GDP, His-tagged human SOS1; read-out: KRAS G12D-SOS PPI IC50
Bridge positions count the residues as written; N and C are the ends. Square brackets hold non-standard residues; d marks the D form. Peptide text beside a SMILES is read from it. * marks the point of attachment. hPhe(3-Cl-4-CF3) = N[C@@H](CCc1ccc(C(F)(F)F)c(Cl)c1)C(=O)O; NMeD = CN[C@@H](CC(=O)O)C(=O)O; NMeL = CN[C@@H](CC(C)C)C(=O)O; NMePra = C#CC[C@H](NC)C(=O)O; NMeV = CN[C@H](C(=O)O)C(C)C; NMeA = CN[C@@H](C)C(=O)O; Piperidide = C1CCN(*)CC1; Ac5c = NC1(C(=O)O)CCCC1; Aze = O=C(O)[C@@H]1CCN1; Sar = CNCC(=O)O
value type: IC50 (nM)
Field: numeric (nM). Do not append units.

Entry C#CC[C@H]1C(=O)N(C)CC(=O)N[C@@H](CCc2ccc(C(F)(F)F)c(Cl)c2)C(=O)N2CCC[C@H]2C(=O)NC2(CCCC2)C(=O)N(C)[C@@H](C(C)C)C(=O)N(C)[C@H](C(=O)N2CCCCC2)CC(=O)N(C)[C@@H](CC(C)C)C(=O)N[C@@H]([C@@H](C)CC)C(=O)N(C)[C@@H](C)C(=O)N2CC[C@H]2C(=O)N1C [Compound 32] ([NMeL]I[NMeA][Aze][NMePra][Sar][hPhe(3-Cl-4-CF3)]P[Ac5c][NMeV][NMeD]-Piperidide; lactam N-11) : reported IC50 = ?
20

---

Entries and their IC50
biological target: protein-protein interaction between Kras and SOS1 (biotin-tagged human Kras loaded with GDP, His-tagged human SOS1) (Homo sapiens (Human), UniProt P01116, G12D); assay: Protein-protein interaction inhibition between Kras and SOS1 (KrasG12D-SOS PPI) using AlphaScreen; format: biochemical; conditions: AlphaScreen; biotin-tagged human Kras loaded with GDP, His-tagged human SOS1; read-out: KRAS G12D-SOS PPI IC50;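 note: kras produced in E. coli, Ni-coupled donor beads and streptavidin acceptor beads, excitation 680 nm with emission detected at 520–620 nm via singlet oxygen transfer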
Numbered stars: 1 amine (or outer) side, 2 acyl side, 3 side chain; on linkers, the order of the positions; unused ones are H or OH. Bridge positions count the residues as written; N and C are the ends. Square brackets hold non-standard residues; d marks the D form. Peptide text beside a SMILES is read from it. * marks the point of attachment. hPhe(3,5-F2-4-CF3) = N[C@@H](CCc1cc(F)c(C(F)(F)F)c(F)c1)C(=O)O; hPhe(3-Cl-4-CF3) = N[C@@H](CCc1ccc(C(F)(F)F)c(Cl)c1)C(=O)O; hPhe(3-F,4-CF3) = N[C@@H](CCc1ccc(C(F)(F)F)c(F)c1)C(=O)O; NEtPhe(4-CF3) = CCN[C@@H](Cc1ccc(C(F)(F)F)cc1)C(=O)O; NMePhe(4-CF3) = CN[C@@H](Cc1ccc(C(F)(F)F)cc1)C(=O)O; 3Oxa8azabicyclo(3.2.1)octane = C1CC2COCC1N2*; NMePhe(4-Me) = CN[C@@H](Cc1ccc(C)cc1)C(=O)O; NMedβ3hAla = C[C@H](CC(=O)[*:2])N(C)[*:1]; NMeAla(cPent) = CN[C@@H](CC1CCCC1)C(=O)O; NMeGly(cPent) = CN[C@H](C(=O)O)C1CCCC1; Pro(4,4-F2) = O=C(O)[C@@H]1CC(F)(F)CN1; NMeCha = CN[C@@H](CC1CCCCC1)C(=O)O; NMeAhp(2) = CCCCC[C@H](NC)C(=O)O; NMeChg = CN[C@H](C(=O)O)C1CCCCC1; NMeE = CN[C@@H](CCC(=O)O)C(=O)O; NMeD = CN[C@@H](CC(=O)O)C(=O)O; NMeL = CN[C@@H](CC(C)C)C(=O)O; NMeV = CN[C@H](C(=O)O)C(C)C; NMeS = CN[C@@H](CO)C(=O)O; NMeA = CN[C@@H](C)C(=O)O; Piperidide = C1CCN(*)CC1; Ac5c = NC1(C(=O)O)CCCC1; Aze = O=C(O)[C@@H]1CCN1; Ac4c = NC1(C(=O)O)CCC1; Isopentyl = CC(C)CC*; Sar = CNCC(=O)O; Propyl = CCC*
Field: numeric (nM). Do not append units.

compound	uom	IC50
CCCOC[C@H]1C(=O)N(C)CC(=O)N[C@@H](CCc2cc(F)c(C(F)(F)F)c(F)c2)C(=O)N2CCC[C@H]2C(=O)NC2(CCCC2)C(=O)N(C)[C@@H](C2CCCC2)C(=O)N(C)[C@H](C(=O)N2C3CCC2COC3)CC(=O)N(C)[C@@H](CC(C)C)C(=O)N[C@@H]([C@@H](C)CC)C(=O)N(C)[C@@H](C)C(=O)N2CC[C@H]2C(=O)N1C [Compound 1355] ([NMeL]I[NMeA][Aze][NMeS](Propyl)[Sar][hPhe(3,5-F2-4-CF3)]P[Ac5c][NMeGly(cPent)][NMeD]-{3Oxa8azabicyclo(3.2.1)octane}; lactam N-11)	nM	3.2
CC[C@H](C)[C@@H]1NC(=O)[C@H](CC(C)C)N(C)C(=O)C[C@@H](C(=O)N2CCCCC2)N(C)C(=O)[C@H](C2CCCC2)N(C)C(=O)C2(CCCC2)NC(=O)[C@@H]2CCCN2C(=O)[C@H](CCc2ccc(C(F)(F)F)c(F)c2)NC(=O)CN(C)C(=O)[C@H](Cc2ccc(C)cc2)N(C)C(=O)[C@@H]2CCN2C(=O)[C@H](C)N(C)C1=O [Compound 1008] ([NMeL]I[NMeA][Aze][NMePhe(4-Me)][Sar][hPhe(3-F,4-CF3)]P[Ac5c][NMeGly(cPent)][NMeD]-Piperidide; lactam N-11)	nM	0.76
CC[C@H](C)[C@@H]1NC(=O)[C@H](CC(C)C)N(C)C(=O)C[C@@H](C)N(C)C(=O)[C@H](C2CCCCC2)N(C)C(=O)C2(CCC2)NC(=O)[C@@H]2CC(F)(F)CN2C(=O)[C@H](CCc2ccc(C(F)(F)F)c(Cl)c2)NC(=O)CN(C)C(=O)[C@H](Cc2ccc(C(F)(F)F)cc2)N(C)C(=O)[C@@H]2CCN2C(=O)[C@H](C)N(C)C1=O [Compound 505] (cyclo([Ac4c][NMeChg][NMedβ3hAla][NMeL]I[NMeA][Aze][NMePhe(4-CF3)][Sar][hPhe(3-Cl-4-CF3)][Pro(4,4-F2)]))	nM	86
CCCCC[C@H]1C(=O)N[C@@H]([C@@H](C)CC)C(=O)N[C@@H](C)C(=O)N2CC[C@H]2C(=O)N(C)[C@@H](Cc2ccc(C)cc2)C(=O)N(C)CC(=O)N[C@@H](CCc2ccc(C(F)(F)F)c(Cl)c2)C(=O)N2CCC[C@H]2C(=O)NC2(CCCC2)C(=O)N(C)[C@@H](C2CCCC2)C(=O)N(C)[C@H](C(=O)N(C)C)CC(=O)N1C [Compound 1059] ([NMeAhp(2)]IA[Aze][NMePhe(4-Me)][Sar][hPhe(3-Cl-4-CF3)]P[Ac5c][NMeGly(cPent)][NMeD]-NMe2; lactam N-11)	nM	0.64
CC[C@H](C)[C@@H]1NC(=O)[C@H](CC(C)C)N(C)C(=O)C[C@@H](C)N(C)C(=O)[C@H](C2CCCCC2)N(C)C(=O)C2(CCC2)NC(=O)[C@@H]2CC(F)(F)CN2C(=O)[C@H](CCc2cc(F)c(C(F)(F)F)c(F)c2)NC(=O)CN(C)C(=O)[C@H](Cc2ccc(C(F)(F)F)cc2)N(CC)C(=O)[C@@H]2CCN2C(=O)[C@H](C)NC1=O [Compound 203] (cyclo(A[Aze][NEtPhe(4-CF3)][Sar][hPhe(3,5-F2-4-CF3)][Pro(4,4-F2)][Ac4c][NMeChg][NMedβ3hAla][NMeL]I))	nM	31
CC[C@H](C)[C@@H]1NC(=O)[C@H](CC(C)C)N(C)C(=O)C[C@@H](C(=O)N2CCCCC2)N(C)C(=O)[C@H](C2CCCCC2)N(C)C(=O)C2(CCCC2)NC(=O)[C@H](CCC(=O)NC)N(C)C(=O)[C@H](CCc2ccc(C(F)(F)F)c(Cl)c2)NC(=O)CN(C)C(=O)[C@H](CC2CCCCC2)N(C)C(=O)CN(C)C(=O)CN(C)C1=O [Compound 590] ([NMeL]I[Sar][Sar][NMeCha][Sar][hPhe(3-Cl-4-CF3)][NMeE](NHMe)[Ac5c][NMeChg][NMeD]-Piperidide; lactam N-11)	nM	1.4
CC[C@H](C)[C@@H]1NC(=O)[C@H](CC(C)C)N(C)C(=O)C[C@@H](C(=O)N2CCCCC2)N(C)C(=O)[C@H](C2CCCCC2)N(C)C(=O)C2(CCCC2)NC(=O)[C@H](COCCC(C)C)N(C)C(=O)[C@H](CCc2ccc(C(F)(F)F)c(Cl)c2)NC(=O)CN(C)C(=O)[C@H](CC2CCCCC2)N(C)C(=O)CN(C)C(=O)CN(C)C1=O [Compound 940] ([NMeL]I[Sar][Sar][NMeCha][Sar][hPhe(3-Cl-4-CF3)][NMeS](Isopentyl)[Ac5c][NMeChg][NMeD]-Piperidide; lactam N-11)	nM	150

Entry CC[C@H](C)[C@@H]1NC(=O)[C@H](CC2CCCC2)N(C)C(=O)C[C@@H](C(=O)N2CCCCC2)N(C)C(=O)[C@H](C(C)C)N(C)C(=O)C2(CCCC2)NC(=O)[C@@H]2CCCN2C(=O)[C@H](CCc2ccc(C(F)(F)F)c(Cl)c2)NC(=O)CN(C)C(=O)[C@H](CC2CCCCC2)N(C)C(=O)[C@@H]2CCN2C(=O)[C@H](C)N(C)C1=O [Compound 37] ([NMeAla(cPent)]I[NMeA][Aze][NMeCha][Sar][hPhe(3-Cl-4-CF3)]P[Ac5c][NMeV][NMeD]-Piperidide; lactam N-11) : reported IC50 = ?
17
